// data source = PubChem BioAssay

Let's look at some compounds and their measured viability.
experiment: viability of HCT116 without oncogenic beta-catenin – human colon tumor cells, pilot screen (AID 823); conditions: HCT116 beta-catenin knockout viability, CellTiter-Glo, 60 h; at 10 µM; stronger effect = lower value;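 further: 0% = wells killed by 20 µM Hyamine and 100% = untreated DMSO cell wells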
Records with an inconclusive call do not appear. Calls of active or inactive are those of the source.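 How the source made its calls: active means cell viability at or below a set limit in both duplicate runs, the limit being the all-compound median minus 4 SD (cut at about 23% in these data, passing the limit was not always enough); inconclusive means no clear call, values can overlap the other calls; inactive means the rest.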
experimental readout: viability

[[record]]
compound = "Cc1c(C#N)c2ccccc2n1CC(=O)N1CCc2ccccc2C1"
experimental_readout = "viability"
assay_value = "92.9% (inactive)"

[[record]]
compound = "CCc1c(C)n([O-])c2c([n+]1=O)CCC2"
experimental_readout = "viability"
assay_value = "99.4% (inactive)"

[[record]]
compound = "CCOC(=O)c1[nH]c(C)c(C(=O)NC)c1C"
experimental_readout = "viability"
assay_value = "109% (inactive)"

[[record]]
compound = "O=C(CSc1nc2c(c(=O)n1-c1ccc(F)cc1)SCC2)NCc1ccco1"
experimental_readout = "viability"
assay_value = "102% (inactive)"

[[record]]
compound = "Cn1c(=O)c2c(nc(SCCNS(=O)(=O)c3ccccc3)n2C)n(C)c1=O"
experimental_readout = "viability"
assay_value = "101% (inactive)"

[[record]]
compound = "CN1C(=O)CS(=O)c2ccc(C(=O)NCCC3=CCCCC3)cc21 (centres undefined)"
experimental_readout = "viability"
assay_value = "81.3% (inactive)"

[[record]]
compound = "CC(=O)Nc1ccc(N=Cc2ccc[nH]2)cc1"
experimental_readout = "viability"
assay_value = "90.7% (inactive)"

[[record]]
compound = "O=C(CC1(O)C(=O)Nc2ccccc21)c1ccc2c(c1)OCO2 (centres undefined)"
experimental_readout = "viability"
assay_value = "97.2% (inactive)"

[[record]]
compound = "COc1ccc(OC)c(NC(=O)c2cn(C)c(=O)c3cc(OC)c(OC)cc23)c1"
experimental_readout = "viability"
assay_value = "99.6% (inactive)"

[[record]]
compound = "CCOc1ccc(NC(=O)C2C3C=CC4(CN(C(C(=O)OC)C(C)C)C(=O)C24)O3)cc1 (centres undefined)"
experimental_readout = "viability"
assay_value = "108% (inactive)"

[[record]]
compound = "Nc1cc(N)cc(-c2nc3ccccc3o2)c1"
experimental_readout = "viability"
assay_value = "100% (inactive)"

[[record]]
compound = "CCC1Oc2ccccc2N(CC(=O)NCCCN2CCOCC2)C1=O (centres undefined)"
experimental_readout = "viability"
assay_value = "109% (inactive)"

[[record]]
compound = "CCOCCCNC(=O)c1ccc2c(c1)N(Cc1ccccc1)C(=O)CS2=O (centres undefined)"
experimental_readout = "viability"
assay_value = "102% (inactive)"

[[record]]
compound = "Clc1ccc(-c2noc(COc3ccccc3)n2)cc1"
experimental_readout = "viability"
assay_value = "101% (inactive)"

[[record]]
compound = "CCN(CC)CCN1C(=O)c2oc3ccc(F)cc3c(=O)c2C1c1ccncc1 (centres undefined)"
experimental_readout = "viability"
assay_value = "96.4% (inactive)"

[[record]]
compound = "CCCCSCc1[nH]c(=O)[nH]c1C(=O)CCCCC(=O)OCC"
experimental_readout = "viability"
assay_value = "99.4% (inactive)"

[[record]]
compound = "O=C(CSc1nnc2ccccn12)c1ccccc1"
experimental_readout = "viability"
assay_value = "109% (inactive)"

[[record]]
compound = "COCCN(CCOC)Cc1c(C)[nH]c2ccccc2c1=O"
experimental_readout = "viability"
assay_value = "92.1% (inactive)"

[[record]]
compound = "COC(=O)c1nnc(-c2ccccc2)c(-c2ccccc2)n1"
experimental_readout = "viability"
assay_value = "104% (inactive)"

[[record]]
compound = "O=C(c1ccc(CS(=O)(=O)c2c(Cl)cccc2Cl)o1)N1CCCC1"
experimental_readout = "viability"
assay_value = "103% (inactive)"

[[record]]
compound = "CCOC(=O)Cc1nnc(NC(=O)C(CC)Sc2nc(C)cc(=O)[nH]2)s1 (centres undefined)"
experimental_readout = "viability"
assay_value = "83.4% (inactive)"

[[record]]
compound = "CC(=O)NCc1cn2c(C)csc2n1"
experimental_readout = "viability"
assay_value = "98.1% (inactive)"

[[record]]
compound = "COCCN1C=C(C(=O)OC)C(c2cc3c(cc2Br)OCO3)C(C(=O)OC)=C1"
experimental_readout = "viability"
assay_value = "58.3% (inactive)"

[[record]]
compound = "CCOc1ccc(N(CC(=O)Nc2ccc(F)c(F)c2)S(=O)(=O)c2c(C)noc2C)cc1"
experimental_readout = "viability"
assay_value = "93% (inactive)"

